Recorded values, source patent US20050054006A1.

- measurementProtocol: Fluorescence excitation/emission of the styryl dye library compounds
- Format: physicochemical
- experimentalParameters: EX/EM peak no. 1
Listed below: EX(nm) values for each entry.

[
  {
    "molecule": "C[n+]1ccc(C=Cc2cccc3ccccc23)cc1Br.[I-] [Compound F32]",
    "EX(nm)": 410
  },
  {
    "molecule": "C[n+]1ccccc1C=Cc1ccccn1.[I-] [Compound C40]",
    "EX(nm)": 390
  },
  {
    "molecule": "COc1ccc(C=Cc2cc[n+](C)c(-c3cc(C)ccn3)c2)cc1OC.[I-] [Compound J11]",
    "EX(nm)": 420
  },
  {
    "molecule": "COc1ccc2c(ccc(C=Cc3c4ccccc4cc4ccccc34)[n+]2C)c1.[I-] [Compound I34]",
    "EX(nm)": 490
  },
  {
    "molecule": "COc1cc(OC)c(OC)cc1C=Cc1cc[n+](C)c2ccccc12.[I-] [Compound G38]",
    "EX(nm)": 420
  },
  {
    "molecule": "O=[N+]([O-])c1ccccc1C=CC=Cc1cc[n+](C23CC4CC(CC(C4)C2)C3)cc1.[Br-] [Compound B36]",
    "EX(nm)": 420
  },
  {
    "molecule": "COc1ccc(C=Cc2ccc3ccccc3[n+]2C)cc1.[I-] [Compound H10]",
    "EX(nm)": 530
  }
]

---

Each item that follows carries a reported EX(nm).
- measurementProtocol: Fluorescence excitation/emission of the styryl dye library compounds
- Format: physicochemical
- experimentalParameters: EX/EM peak no. 1

[
  {
    "molSmiles": "Cc1ccnc(-c2cc(/C=C/Cc3ccccc3)cc[n+]2C)c1.[I-]",
    "EX(nm)": 450
  },
  {
    "molSmiles": "Cc1ccnc(-c2cc(C=CC=Cc3ccccc3[N+](=O)[O-])cc[n+]2C)c1.[I-]",
    "EX(nm)": 420
  },
  {
    "molSmiles": "COc1ccccc1C=Cc1cc[n+](C23CC4CC(CC(C4)C2)C3)cc1.[Br-]",
    "EX(nm)": 390
  },
  {
    "molSmiles": "C[n+]1c(C=Cc2ccccc2Br)ccc2ccccc21.[I-]",
    "EX(nm)": 530
  },
  {
    "molSmiles": "CN(C)c1ccc(C=Cc2cc[n+](C)cc2)c2ccccc12.[I-]",
    "EX(nm)": 450
  },
  {
    "molSmiles": "COc1cc(OC)c(OC)cc1C=Cc1cccc(C)[n+]1C.[I-]",
    "EX(nm)": 420
  },
  {
    "molSmiles": "CN(C)c1ccc(C=Cc2cc[n+](C)c(Br)c2)c2ccccc12.[I-]",
    "EX(nm)": 460
  },
  {
    "molSmiles": "COc1ccc2ccccc2c1C=Cc1cccc[n+]1C.[I-]",
    "EX(nm)": 420
  },
  {
    "molSmiles": "C[n+]1ccc(C=Cc2ccc([N+](=O)[O-])cc2)cc1.[I-]",
    "EX(nm)": 400
  },
  {
    "molSmiles": "COc1cc(OC)c(OC)cc1C=Cc1cccc[n+]1C.[I-]",
    "EX(nm)": 420
  },
  {
    "molSmiles": "COc1ccc2c(ccc(C=Cc3ccc(O)cc3)[n+]2C)c1.[I-]",
    "EX(nm)": 360
  },
  {
    "molSmiles": "Cc1cccc(C=CC=Cc2ccccc2)[n+]1C.[I-]",
    "EX(nm)": 420
  },
  {
    "molSmiles": "COc1cc(C=Cc2ccc3ccccc3[n+]2C)cc(OC)c1OC.[I-]",
    "EX(nm)": 420
  },
  {
    "molSmiles": "Cc1cccc(C=Cc2ccc3c(c2)OCO3)[n+]1C.[I-]",
    "EX(nm)": 390
  },
  {
    "molSmiles": "C[n+]1c(C=Cc2ccc(Br)cc2)ccc2ccccc21.[I-]",
    "EX(nm)": 480
  },
  {
    "molSmiles": "COc1ccc(C=Cc2cccc[n+]2C)cc1O.[I-]",
    "EX(nm)": 390
  },
  {
    "molSmiles": "C[n+]1ccc(/C=C/c2c[nH]c3ccccc23)c2ccccc21.[I-]",
    "EX(nm)": 490
  },
  {
    "molSmiles": "COc1ccc2c(ccc(C=Cc3ccc(OC)c(OC)c3)[n+]2C)c1.[I-]",
    "EX(nm)": 430
  },
  {
    "molSmiles": "Cc1ccnc(-c2cc(/C=C/c3ccccc3Br)cc[n+]2C)c1.[I-]",
    "EX(nm)": 450
  },
  {
    "molSmiles": "C[n+]1c(C=Cc2cccc3ccccc23)ccc2ccccc21.[I-]",
    "EX(nm)": 420
  },
  {
    "molSmiles": "COc1ccc2c(ccc(C=Cc3cc(OC)c(OC)cc3OC)[n+]2C)c1.[I-]",
    "EX(nm)": 390
  },
  {
    "molSmiles": "C[n+]1ccc(C=Cc2c(F)c(F)c(F)c(F)c2F)c2ccccc21.[I-]",
    "EX(nm)": 430
  },
  {
    "molSmiles": "C[n+]1c(C=Cc2ccc(Cl)cc2)ccc2ccccc21.[I-]",
    "EX(nm)": 530
  },
  {
    "molSmiles": "Cc1ccnc(-c2cc(/C=C/c3ccc(N(C)C)cc3)cc[n+]2C)c1.[I-]",
    "EX(nm)": 480
  }
]

---

- measurementProtocol: Fluorescence excitation/emission of the styryl dye library compounds
- Type: physicochemical
- experimentalParameters: EX/EM peak no. 1

[
  {
    "molSmiles": "CCc1ccc(/C=C/c2ccc3c(c2)OCO3)[n+](C)c1.[I-]",
    "EM(nm)": 500
  },
  {
    "molSmiles": "CCc1ccc(/C=C/c2ccc(N(C)C)c3ccccc23)[n+](C)c1.[I-]",
    "EM(nm)": 620
  },
  {
    "molSmiles": "COc1ccc(C=Cc2cc[n+](C)c3ccccc23)cc1O.[I-]",
    "EM(nm)": 560
  },
  {
    "molSmiles": "COc1ccc(C=Cc2ccc3ccccc3[n+]2C)c2ccccc12.[I-]",
    "EM(nm)": 590
  },
  {
    "molSmiles": "C[n+]1c(C=Cc2c[nH]c3ccccc23)ccc2ccccc21.[I-]",
    "EM(nm)": 560
  },
  {
    "molSmiles": "COc1cc(C=Cc2cccc[n+]2C)cc(OC)c1OC.[I-]",
    "EM(nm)": 540
  },
  {
    "molSmiles": "Cc1ccnc(-c2cc(/C=C/c3ccccc3Br)cc[n+]2C)c1.[I-]",
    "EM(nm)": 620
  },
  {
    "molSmiles": "COc1ccc2c(ccc(C=Cc3ccccc3Br)[n+]2C)c1.[I-]",
    "EM(nm)": 640
  },
  {
    "molSmiles": "COc1ccc(/C=C/c2cc[n+](C34CC5CC(CC(C5)C3)C4)cc2)cc1OC.[Br-]",
    "EM(nm)": 540
  },
  {
    "molSmiles": "C[n+]1c(C=Cc2ccccc2[N+](=O)[O-])ccc2ccccc21.[I-]",
    "EM(nm)": 620
  },
  {
    "molSmiles": "Cc1cccc(C=C/C=C/c2ccc(N(C)C)cc2)[n+]1C.[I-]",
    "EM(nm)": 680
  },
  {
    "molSmiles": "Cc1cccc(C=Cc2ccc(N(C)C)c3ccccc23)[n+]1C.[I-]",
    "EM(nm)": 620
  },
  {
    "molSmiles": "CN(C)c1ccc(C=CC=Cc2cc[n+](C34CC5CC(CC(C5)C3)C4)cc2)cc1.[Br-]",
    "EM(nm)": 700
  },
  {
    "molSmiles": "COc1ccc2ccccc2c1C=Cc1cccc[n+]1C.[I-]",
    "EM(nm)": 530
  },
  {
    "molSmiles": "COc1ccc2c(ccc(C=Cc3ccc(OCc4ccccc4)c(OCc4ccccc4)c3)[n+]2C)c1.[I-]",
    "EM(nm)": 560
  },
  {
    "molSmiles": "COc1ccc2c(ccc(C=Cc3ccc(Br)cc3)[n+]2C)c1.[I-]",
    "EM(nm)": 650
  },
  {
    "molSmiles": "Cc1ccnc(-c2cc(C=Cc3c4ccccc4cc4ccccc34)cc[n+]2C)c1.[I-]",
    "EM(nm)": 630
  },
  {
    "molSmiles": "COc1ccc2c(ccc(C=Cc3cc(OC)c(OC)cc3OC)[n+]2C)c1.[I-]",
    "EM(nm)": 620
  },
  {
    "molSmiles": "CCc1ccc(/C=C/c2c[nH]c3ccccc23)[n+](C)c1.[I-]",
    "EM(nm)": 510
  },
  {
    "molSmiles": "Cc1ccnc(-c2cc(/C=C/c3ccc(N(C)C)cc3)cc[n+]2C)c1.[I-]",
    "EM(nm)": 640
  },
  {
    "molSmiles": "CCc1ccc(C=Cc2cccc3ccccc23)[n+](C)c1.[I-]",
    "EM(nm)": 560
  },
  {
    "molSmiles": "C[n+]1ccc(C=Cc2ccc(O)cc2)cc1.[I-]",
    "EM(nm)": 510
  },
  {
    "molSmiles": "COc1ccc(C=Cc2cc[n+](C)c(-c3cc(C)ccn3)c2)cc1O.[I-]",
    "EM(nm)": 530
  },
  {
    "molSmiles": "Cc1ccnc(-c2cc(/C=C/c3ccccn3)cc[n+]2C)c1.[I-]",
    "EM(nm)": 580
  },
  {
    "molSmiles": "Fc1ccc(C=Cc2cc[n+](C34CC5CC(CC(C5)C3)C4)cc2)cc1.[Br-]",
    "EM(nm)": 590
  },
  {
    "molSmiles": "C[n+]1ccccc1C=Cc1ccccn1.[I-]",
    "EM(nm)": 610
  },
  {
    "molSmiles": "COc1ccc2c(ccc(C=Cc3ccc(OC)c(OC)c3)[n+]2C)c1.[I-]",
    "EM(nm)": 560
  },
  {
    "molSmiles": "O=Cc1ccccc1C=Cc1cc[n+](C23CC4CC(CC(C4)C2)C3)cc1.[Br-]",
    "EM(nm)": 570
  },
  {
    "molSmiles": "Fc1ccccc1C=Cc1cc[n+](C23CC4CC(CC(C4)C2)C3)cc1.[Br-]",
    "EM(nm)": 560
  },
  {
    "molSmiles": "C[n+]1ccc(C=Cc2cccc3ccccc23)c2ccccc21.[I-]",
    "EM(nm)": 560
  },
  {
    "molSmiles": "COc1ccc2c(ccc(/C=C/c3ccc4ccccc4c3)[n+]2C)c1.[I-]",
    "EM(nm)": 640
  },
  {
    "molSmiles": "Cc1cccc(C=Cc2ccc(O)cc2)[n+]1C.[I-]",
    "EM(nm)": 500
  },
  {
    "molSmiles": "C[n+]1c(C=Cc2cccc(Br)c2)ccc2ccccc21.[I-]",
    "EM(nm)": 640
  },
  {
    "molSmiles": "CC(=O)Nc1ccc(/C=C/c2cc[n+](C)c3ccccc23)cc1.[I-]",
    "EM(nm)": 670
  },
  {
    "molSmiles": "CCc1ccc(C=C/C=C/c2ccc(N(C)C)cc2)[n+](C)c1.[I-]",
    "EM(nm)": 670
  },
  {
    "molSmiles": "CN(C)c1ccc(C=Cc2cc[n+](C)c3ccccc23)c2ccccc12.[I-]",
    "EM(nm)": 720
  }
]
